# ASSAYED TARGET: SST2 (Homo sapiens, UniProt P30874)
# Construct: host or cells: PathHunter CHO-K1 SST2 cells
# Sequence (P30874 whole entry): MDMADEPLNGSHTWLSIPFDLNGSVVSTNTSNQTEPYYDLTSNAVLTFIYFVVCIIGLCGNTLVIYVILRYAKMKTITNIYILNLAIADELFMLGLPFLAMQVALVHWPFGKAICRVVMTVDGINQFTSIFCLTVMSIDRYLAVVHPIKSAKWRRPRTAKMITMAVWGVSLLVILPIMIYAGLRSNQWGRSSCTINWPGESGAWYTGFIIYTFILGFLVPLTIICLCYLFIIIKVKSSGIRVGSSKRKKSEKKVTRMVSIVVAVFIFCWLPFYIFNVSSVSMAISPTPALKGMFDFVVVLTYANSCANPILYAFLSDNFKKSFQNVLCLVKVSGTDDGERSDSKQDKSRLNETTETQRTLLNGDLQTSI
# ASSAY NOTES: PathHunter CHO-K1 SST2 internalization assay
# Format: cell-based
# TEST PARAMETERS: PathHunter CHO-K1 SST2, 90 min; read-out: Internalization EC50
Reported pEC50 is given for each of the following compounds.
Notebook: values listed as pEC50 are -log10 of the concentration (mol/L).

Lookup: Give the reported pEC50 for CC[C@H](C)[C@@H]([C@@H](CC(=O)N1CCC[C@H]1[C@H](OC)[C@@H](C)C(=O)N[C@H](C)[C@@H](O)c1ccccc1)OC)N(C)C(=O)[C@@H](NC(=O)[C@H](C(C)C)N(C)C(=O)OCc1ccc(NC(=O)[C@H](CCCNC(N)=O)NC(=O)[C@@H](NC(=O)CCOCCOCCOCCOCCC(=O)NCCNc2ncc(-c3cc(C)cc(F)c3)c(N3CCC(N)CC3)c2-c2nc3ccc(Cl)cc3[nH]2)C(C)C)c(O[C@@H]2O[C@H](C(=O)O)[C@@H](O)[C@H](O)[C@H]2O)c1)C(C)C [Compound 62] (system: SST2 (Homo sapiens, UniProt P30874)).
Found: 7.85

New cases:
Lookup: Field: pEC50 (SST2 (Homo sapiens, UniProt P30874)). Entry: CC[C@H](C)[C@@H]([C@@H](CC(=O)N1CCC[C@H]1[C@H](OC)[C@@H](C)C(=O)N[C@H](C)[C@@H](O)c1ccccc1)OC)N(C)C(=O)[C@@H](NC(=O)[C@H](C(C)C)N(C)C(=O)OCc1ccc(O[C@@H]2O[C@H](C(=O)O)[C@@H](O)[C@H](O)[C@H]2O)c(NC(=O)[C@H](C)NC(=O)[C@@H](NC(=O)CCOCCC(=O)NCCNc2ncc(-c3cc(C)cc(F)c3)c(N3CCC(N)CC3)c2-c2nc3ccc(Cl)cc3[nH]2)C(C)C)c1)C(C)C [Compound 148]
Found: 8.35

###

# ASSAYED TARGET: SST2 (Homo sapiens, UniProt P30874)
# Construct: host or cells: PathHunter CHO-K1 SST2 cells
# ASSAY NOTES: PathHunter CHO-K1 SST2 internalization assay
# Format: cell-based
# TEST PARAMETERS: Internalization EC50 (nM), PathHunter CHO-K1 SST2, 90 min
Non-standard residues stand in square brackets, D forms with d. Residues, ends and D or L forms follow the SMILES beside them. *: point of attachment. X1 = Cc1cc(F)cc(-c2cnc(NCCNC(=O)CCOCCC(=O)*)c(-c3nc4ccc(Cl)cc4[nH]3)c2N2CCC(N)CC2)c1; Dolaproine = CO[C@@H]([C@@H]1CCCN1)[C@@H](C)C(=O)O; Dil = CC[C@H](C)[C@H](NC)[C@@H](CC(=O)O)OC; X2 = C[C@@H](N*)[C@@H](O)c1ccccc1; NMeV = CN[C@H](C(=O)O)C(C)C
Recorded EC50 by entry
State just the number; it will be interpreted in nM.

Lookup: Please state recorded EC50 (tested on SST2 (Homo sapiens, UniProt P30874)) of CC[C@@]1(O)C(=O)OCc2c1cc1n(c2=O)Cc2c-1nc1cc(F)c(C)c3c1c2[C@@H](NC(=O)OCc1ccc(NC(=O)[C@H](CCCNC(N)=O)NC(=O)[C@@H](NC(=O)[C@H](CCC(=O)O)NC(=O)CCOCCC(=O)NCCNc2ncc(-c4cc(C)cc(F)c4)c(N4CCC(N)CC4)c2-c2nc4ccc(Cl)cc4[nH]2)C(C)C)cc1C(=O)NCCN)CC3
Found: 2.4

Lookup: Try this compound next: CC[C@@]1(O)C(=O)OCc2c1cc1n(c2=O)Cc2c-1nc1cc(F)c(C)c3c1c2[C@@H](NC(=O)OCc1ccc(NC(=O)[C@H](CCCNC(N)=O)NC(=O)[C@@H](NC(=O)CCOCCC(=O)NCCNc2ncc(-c4cc(C)cc(F)c4)c(N4CCC(N)CC4)c2-c2nc4ccc(Cl)cc4[nH]2)C(C)C)cc1C(=O)NCCN)CC3
Found: 4.8

Others:
Lookup: Recorded EC50 for CC[C@@]1(O)C(=O)OCc2c1cc1n(c2=O)Cc2c-1nc1cc(F)c(C)c3c1c2[C@@H](NC(=O)OCc1ccc(NC(=O)[C@H](CCCNC(N)=O)NC(=O)[C@@H](NC(=O)CN2CCN(CC(=O)O)CCN(CC(=O)NCCOCCOCCOCCOCCC(=O)NCCNc4ncc(-c5cc(C)cc(F)c5)c(N5CCC(N)CC5)c4-c4nc5ccc(Cl)cc5[nH]4)CC2)C(C)C)cc1)CC3 with SST2 (Homo sapiens, UniProt P30874), please?
Found: 4.5

Lookup: And the next one, CC[C@H](C)[C@@H]([C@@H](CC(=O)N1CCC[C@H]1[C@H](OC)[C@@H](C)C(=O)N[C@H](C)[C@@H](O)c1ccccc1)OC)N(C)C(=O)[C@@H](NC(=O)[C@H](C(C)C)N(C)C(=O)CNC(=O)[C@H](Cc1ccccc1)NC(=O)CNC(=O)CNC(=O)CCOCCC(=O)NCCNc1ncc(-c2cc(C)cc(F)c2)c(N2CCC(N)CC2)c1-c1nc2ccc(Cl)cc2[nH]1)C(C)C [Compound 34] (X1-GGFG[NMeV]V[Dil][Dolaproine]-X2) ?
Found: 21.8

Lookup: Next record, please: CC[C@@]1(O)C(=O)OCc2c1cc1n(c2=O)Cc2c-1nc1cc(F)c(C)c3c1c2[C@@H](NC(=O)OCc1ccc(NC(=O)[C@H](CCCNC(N)=O)NC(=O)[C@@H](NC(=O)CCOCCC(=O)NCCNc2ncc(-c4cc(C)cc(F)c4)c(N4CCC(N)CC4)c2-c2nc4ccc(Cl)cc4[nH]2)C(C)C)c(O[C@@H]2O[C@H](C(=O)O)[C@@H](O)[C@H](O)[C@H]2O)c1)CC3
Found: 3.4

Lookup: And what about the compound CC[C@@]1(O)C(=O)OCc2c1cc1n(c2=O)Cc2c-1nc1cc(F)c(C)c3c1c2[C@@H](NC(=O)OCc1ccc(NC(=O)[C@H](C)NC(=O)[C@@H](NC(=O)CCOCCC(=O)NCCNc2ncc(-c4cc(C)cc(F)c4)c(N4CCC(N)CC4)c2-c2nc4ccc(Cl)cc4[nH]2)C(C)C)c(O[C@@H]2O[C@H](C(=O)O)[C@@H](O)[C@H](O)[C@H]2O)c1)CC3 ?
Found: 1.5
